Target: NLRP3 (Homo sapiens, UniProt Q96P20)
Sequence (Q96P20 whole entry): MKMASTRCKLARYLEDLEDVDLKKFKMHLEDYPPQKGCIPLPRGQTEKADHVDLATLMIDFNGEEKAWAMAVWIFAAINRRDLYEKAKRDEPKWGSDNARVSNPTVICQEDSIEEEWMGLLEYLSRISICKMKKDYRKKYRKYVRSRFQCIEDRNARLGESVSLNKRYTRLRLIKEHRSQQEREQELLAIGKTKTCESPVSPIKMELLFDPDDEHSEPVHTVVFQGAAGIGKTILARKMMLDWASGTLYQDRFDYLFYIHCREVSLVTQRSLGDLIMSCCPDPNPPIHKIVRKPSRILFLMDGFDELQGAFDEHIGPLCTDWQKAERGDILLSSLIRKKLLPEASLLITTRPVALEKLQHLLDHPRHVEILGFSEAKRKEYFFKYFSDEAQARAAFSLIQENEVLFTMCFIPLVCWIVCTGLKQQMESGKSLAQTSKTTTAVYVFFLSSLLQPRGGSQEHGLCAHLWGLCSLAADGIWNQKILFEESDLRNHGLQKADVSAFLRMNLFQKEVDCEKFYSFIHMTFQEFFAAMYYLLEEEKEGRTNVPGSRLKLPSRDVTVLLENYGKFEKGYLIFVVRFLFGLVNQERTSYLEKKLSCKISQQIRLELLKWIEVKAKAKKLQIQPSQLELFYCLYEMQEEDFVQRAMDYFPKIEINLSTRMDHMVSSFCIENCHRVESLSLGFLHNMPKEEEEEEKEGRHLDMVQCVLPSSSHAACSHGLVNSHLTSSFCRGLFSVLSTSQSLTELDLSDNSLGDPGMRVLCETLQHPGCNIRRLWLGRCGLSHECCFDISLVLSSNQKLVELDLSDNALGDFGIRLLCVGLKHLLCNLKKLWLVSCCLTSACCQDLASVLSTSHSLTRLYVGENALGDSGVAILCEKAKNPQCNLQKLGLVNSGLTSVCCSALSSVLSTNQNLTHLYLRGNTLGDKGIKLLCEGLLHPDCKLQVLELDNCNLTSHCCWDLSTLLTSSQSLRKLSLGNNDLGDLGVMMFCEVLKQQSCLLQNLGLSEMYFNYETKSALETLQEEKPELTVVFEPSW
Experiment: Measurement of IL-1β production (NLRP3 hIL1β EC50), PMA-differentiated THP-1 cells
Details: human IL-1β production; assayed using one or more of the described procedures
pEC50: −log10 of the molar value.
Attribute measured: pEC50

Worked cases, answers included:
                                   compound                     system_under_test  attribute_measured  recorded_value
0  N#CC1(C(=O)N2CCC[C@H](c3nc4c(N)nc5cc(-c6cc[nH]n6)ccc5c4[nH]3)C2)CC1  NLRP3 (Homo sapiens, UniProt Q96P20)               pEC50            6.01
1  CCn1c([C@H]2CCCN(C(=O)C3CC3(F)F)C2)nc2c(N)nc3cc(-c4cc[nH]n4)ccc3c21 (stereo partly drawn)  NLRP3 (Homo sapiens, UniProt Q96P20)               pEC50            7.10
2  Nc1nc2cc(-c3cc[nH]n3)ccc2c2[nH]c([C@H]3CCCN(C(=O)C4CC4(F)F)C3)nc12 (stereo partly drawn)  NLRP3 (Homo sapiens, UniProt Q96P20)               pEC50            6.00
3  N#CC1(C(=O)N2CCC[C@@H]2Cc2nc3c(N)nc4cc(-c5cc[nH]n5)ccc4c3[nH]2)CCCC1  NLRP3 (Homo sapiens, UniProt Q96P20)               pEC50            5.18
4  CC(=O)N1CCC(Cc2nc3c(N)nc4cc(-c5cc[nH]n5)ccc4c3[nH]2)C1 (stereo not drawn)  NLRP3 (Homo sapiens, UniProt Q96P20)               pEC50            5.31
5  CCn1c([C@H]2CCCN(C(=O)C3CCC3)C2)nc2c(N)nc3cc(-c4cc[nH]n4)ccc3c21  NLRP3 (Homo sapiens, UniProt Q96P20)               pEC50            6.66
6  CCC(=O)N1CCC[C@H](c2nc3c(N)nc4cc(-c5cc[nH]n5)ccc4c3n2C(C)C)C1  NLRP3 (Homo sapiens, UniProt Q96P20)               pEC50            6.48
7  N#CC1(C(=O)N2CCC[C@H]2Cc2nc3c(N)nc4cc(-c5cc[nH]n5)ccc4c3[nH]2)CCC1  NLRP3 (Homo sapiens, UniProt Q96P20)               pEC50            5.21
8  CCn1c([C@H]2CCCN(C(=O)CCOC)C2)nc2c(N)nc3cc(-c4cc[nH]n4)ccc3c21  NLRP3 (Homo sapiens, UniProt Q96P20)               pEC50            6.19
9  COCCC(=O)N1CCC[C@H](c2nc3c(N)nc4cc(-c5cc[nH]n5)ccc4c3[nH]2)C1  NLRP3 (Homo sapiens, UniProt Q96P20)               pEC50            5.74

I = CCCC(=O)N1CCC[C@@H](c2nc3c(N)nc4cc(-c5cc[nH]n5)ccc4c3[nH]2)C1
II = C#CCC(=O)N1CCC[C@@H](c2nc3c(N)nc4cc(-c5cc[nH]n5)ccc4c3[nH]2)C1
Exercise: Select one. Lower pEC50: I or II Give the label under which the chosen entry appears.
Solution: I

P = CC(C)n1c([C@H]2CCCN(C(=O)C3CC(F)(F)C3)C2)nc2c(N)nc3cc(-c4cc[nH]n4)ccc3c21
Q = CCC(=O)N1CC[C@H](c2nc3c(N)nc4cc(-c5cc[nH]n5)ccc4c3[nH]2)C1
Exercise: Select one. Lower pEC50: P or Q Give the label under which the chosen entry appears.
Solution: Q
(Q: 5.18, P: 6.48)

* * *

Target: NLRP3 (Homo sapiens, UniProt Q96P20)
Experiment: Measurement of IL-1β production (NLRP3 hIL1β EC50), PMA-differentiated THP-1 cells
Conditions: human IL-1β production; assayed using one or more of the described procedures
pEC50: −log10 of the molar value.
Attribute measured: pEC50

Worked cases, answers included:
>>> df
                                   compound  recorded_value
0  CC(C)C(=O)N1CCC[C@H](c2nc3c(N)nc4cc(-c5cc[nH]n5)ccc4c3[nH]2)C1 [Example 26]            5.92
1  CC(C)(C)OC(=O)N1CCC[C@@H]1Cc1nc2c(N)nc3cc(-c4cc[nH]n4)ccc3c2[nH]1 [Example 13]            5.82
2  N#CC1(C(=O)N2CCC[C@@H]2Cc2nc3c(N)nc4cc(-c5cc[nH]n5)ccc4c3[nH]2)CCC1 [Example 82]            5.59
3  C#CCC(=O)N1CCC[C@H](c2nc3c(N)nc4cc(-c5cc[nH]n5)ccc4c3n2CC)C1 [Example 49]            6.21
4  CCC(=O)N1CCC[C@H](c2nc3c(N)nc4cc(-c5cc[nH]n5)ccc4c3[nH]2)C1 [Example 25]            5.96
5  CC(C)(C)C(=O)N1CCC[C@H]1Cc1nc2c(N)nc3cc(-c4cc[nH]n4)ccc3c2[nH]1 [Example 88]            5.72

a = Nc1nc2cc(-c3cc[nH]n3)ccc2c2[nH]c(C[C@H]3CCCN3C(=O)c3ccccc3)nc12 [Example 84]
b = COCC(=O)N1CCC[C@@H]1Cc1nc2c(N)nc3cc(-c4cc[nH]n4)ccc3c2[nH]1 [Example 80]
Exercise: Select one. Lower pEC50: a or b Give the label under which the chosen entry appears.
Solution: b
(b: 5.18, a: 5.60)

* * *

Target: NLRP3 (Homo sapiens)
Construct: host or cells: PMA-differentiated THP-1 cells
Assay: Measurement of IL-1β production (NLRP3 hIL1β EC50), PMA-differentiated THP-1 cells
Type: cell-based
Details: human IL-1β production; assayed using one or more of the described procedures
pEC50: −log10 of the molar value.
Attribute measured: pEC50

>>> df
                               given_smiles  attribute_measured  recorded_value
0  Nc1nc2cc(-c3cc[nH]n3)ccc2c2[nH]c([C@H]3CCCN(C(=O)c4ccccc4)C3)nc12               pEC50            5.82

a = CC(C)C(=O)N1CCC[C@@H]1Cc1nc2c(N)nc3cc(-c4cc[nH]n4)ccc3c2[nH]1
b = CC(C)C(=O)N1CC[C@H](c2nc3c(N)nc4cc(-c5cc[nH]n5)ccc4c3[nH]2)C1
Exercise: Sort a and b by pEC50 descending and give the first. Give the label under which the chosen entry appears.
Solution: a

P = Nc1nc2cc(-c3cc[nH]n3)ccc2c2[nH]c([C@H]3CCCN(C(=O)C4CCC4)C3)nc12
Q = CCCC(=O)N1CCC[C@H](c2nc3c(N)nc4cc(-c5cc[nH]n5)ccc4c3n2C(C)C)C1
R = Nc1nc2cc(-c3cc[nH]n3)ccc2c2[nH]c([C@H]3CCCN(C(=O)C4CC4)C3)nc12
Exercise: Please rank these compounds by pEC50 in descending order. To answer, arrange all of the labels according to the requested order.
Solution: Q, P, R
(Q: 6.42, P: 6.17, R: 5.62)

I = CC(C)n1c([C@H]2CCCN(C(=O)Cc3ccccc3)C2)nc2c(N)nc3cc(-c4cc[nH]n4)ccc3c21
II = CC(C)(C)C(=O)N1CCC[C@@H](c2nc3c(N)nc4cc(-c5cc[nH]n5)ccc4c3[nH]2)C1
Exercise: Select one. Lower pEC50: I or II Give the label under which the chosen entry appears.
Solution: II

* * *

Biological target: NLRP3 (Homo sapiens)
Assay: Measurement of IL-1β production (NLRP3 hIL1β EC50), PMA-differentiated THP-1 cells
Details: human IL-1β production; assayed using one or more of the described procedures
Attribute measured: EC50 (nM)

Worked cases, answers included:
                                   molecule  attribute_measured  reading_unit  recorded_value
0  CC(C)CC(=O)N1CCC[C@H]1Cc1nc2c(N)nc3cc(-c4cc[nH]n4)ccc3c2[nH]1                EC50            nM            4300
1  CC(C)n1c([C@H]2CCCN(C(=O)C3(C#N)CC3)C2)nc2c(N)nc3cc(-c4cc[nH]n4)ccc3c21                EC50            nM             230
2  COCC(=O)N1CCC[C@@H](c2nc3c(N)nc4cc(-c5cc[nH]n5)ccc4c3[nH]2)C1                EC50            nM            9900
3  CC(=O)N1CC[C@H](c2nc3c(N)nc4cc(-c5cc[nH]n5)ccc4c3[nH]2)C1                EC50            nM            4900
4  CCCC(=O)N1CCC[C@H](c2nc3c(N)nc4cc(-c5cc[nH]n5)ccc4c3[nH]2)C1                EC50            nM             890

a = Nc1nc2cc(-c3cc[nH]n3)ccc2c2[nH]c(C[C@H]3CCCN3)nc12
b = Nc1nc2cc(-c3cc[nH]n3)ccc2c2[nH]c([C@@H]3CCCN(C(=O)c4ccccc4)C3)nc12
Exercise: Sort a and b by EC50 descending and give the first. Give the label under which the chosen entry appears.
Solution: b
(b: 1800 nM, a: 110 nM)
